Test: NOVARTIS: Inhibition Frequency Index (IFI) - the number of HTS assays where a compound showed > 50% inhibition/induction, expressed as a percentage of the number of assays in which the compound was tested.
Type: functional
Over roughly 5,400 compounds, “IFI” has its median near 2; the highest 2% begin near 22. The sample as a whole holds a higher share of the highest values than the screen did.
I would appreciate it if you labelled entries 1 (yes) when IFI is 5% or higher, otherwise 0 (no).

Here's what some known entries look like.
query smiles | assigned class
CCC(C)(C)c1ccc(Oc2ccc(NC(=O)c3ccc([N+](=O)[O-])o3)cc2)cc1 | 1 (yes)
Cc1ccn2c(NC(C)(C)CC(C)(C)C)c(-c3ccccc3OC(=O)c3ccc(C)c([N+](=O)[O-])c3)nc2c1 | 0 (no)
O=c1cc(NC2CCN(CCCc3ccccc3)CC2)c2cc(Cl)ccc2o1 | 0 (no)

Ask: Entry `Cc1cc(/C=C2/SC(=S)N(CC(=O)O)C2=O)c(C)n1-c1ccccc1` : is its IFI no less than 5%?
Reply: 0 (no)

Ask: Kindly determine if IFI recorded for `CC[n+]1c(C=C2Sc3ccccc3N2CCO)sc2ccccc21` is above or exactly 5%.
Reply: 0 (no)

Ask: Determine whether this compound has IFI no lower than 5%: `CCN1/C(=C\C=C2/SC(=S)N(c3ccccc3)C2=O)C(C)(C)c2cc(-c3ccccc3)ccc21`
Reply: 1 (yes)

Ask: Does IFI meet or surpass 5% for `CCN1CCN(c2cc(C)c3cc(NC(=O)c4ccc(F)c([N+](=O)[O-])c4)ccc3n2)CC1` ?
Reply: 1 (yes)

Ask: Is reported IFI greater than or equal to 5% here: `CC(=O)NCCc1ccc(O)cc1`
Reply: 0 (no)

Ask: State whether the measured IFI reaches 5%, counting equality as reaching it, for `O=C(Cc1ccccc1)Nc1ccc(C(=O)Nc2ccc(-c3nc4ccc(NC(=O)c5ccc(NC(=O)Cc6ccccc6)cc5)c(Cl)c4[nH]3)cc2)cc1`
Reply: 1 (yes)
